Target: human 5HT6 receptor (human, UniProt P50406 1-440)
Sequence (P50406 whole entry): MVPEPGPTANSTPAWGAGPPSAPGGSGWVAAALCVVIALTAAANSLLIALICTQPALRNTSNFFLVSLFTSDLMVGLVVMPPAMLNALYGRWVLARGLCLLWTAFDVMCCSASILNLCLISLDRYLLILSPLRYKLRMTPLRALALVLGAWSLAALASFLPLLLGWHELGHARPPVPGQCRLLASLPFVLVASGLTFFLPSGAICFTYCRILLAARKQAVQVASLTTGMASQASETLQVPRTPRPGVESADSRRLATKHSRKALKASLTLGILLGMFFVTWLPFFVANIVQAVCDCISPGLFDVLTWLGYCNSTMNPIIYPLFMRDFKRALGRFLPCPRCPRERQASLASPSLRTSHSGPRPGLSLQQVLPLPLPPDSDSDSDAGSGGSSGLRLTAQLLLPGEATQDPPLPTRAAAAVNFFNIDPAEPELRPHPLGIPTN
Test: cell-based or functional assay
Recorded max Ca2+ signal, COS-7, FLIPR; agonist 5HT, one value per entry.
propertyName: max Ca2+ signal, COS-7, FLIPR; agonist 5HT (fluorescence units)

>>> observed("C. elegans Gαq/s21 (other) MACCLSEEAREQKRINQEIEKQLQRDKRNARRELKLLLLGTGESGKSTFIKQMRIIHGQGYSEEDKRAHIRLVYQNVFMAIQSMIRAMDTLDIKFGNESEELQEKAAVVREVDFESVTSFEEPYVSYIKELWEDSGIQECYDRRREYQLTDSAKYYLSDLRRLAVPDYLPTEQDILRVRVPTTGIIEYPFDLEQIIFRMVDVGGQRSERRKWIHCFENVTSIMFLVALSEYDQVLVECDNENRMEESKALFRTIITYPWFTNSSVILFLNKKDLLEEKILYSHLADYFPEYDGPPRDPIAAREFILKMFVDLNPDADKIIYSHFTCATDTENIRRVFNDCRDIIQRMHLRQYELL")
1010
>>> observed("Human Gαq/s9 (other) MTLESIMACCLSEEAKEARRINDEIERQLRRDKRDARRELKLLLLGTGESGKSTFIKQMRIIHGSGYSDEDKRGFTKLVYQNIFTAMQAMIRAMDTLKIPYKYEHNKAHAQLVREVDVEKVSAFENPYVDAIKSLWNDPGIQECYDRRREYQLSDSTKYYLNDLDRVADPSYLPTQQDVLRVRVPTTGIIEYPFDLQSVIFRMVDVGGQRSERRKWIHCFENVTSIMFLVALSEYDQVLVESDNENRMEESKALFRTIITYPWFQNSSVILFLNKKDLLEEKIMYSHLVDYFPEYDGPQRDAQAAREFILKMFVDLNPDSDKIIYSHFTCATDTENIRFVFAAVKDTILQMHLRQYELL")
999
>>> observed("C. elegans Gαq/s9 (other) MACCLSEEAREQKRINQEIEKQLQRDKRNARRELKLLLLGTGESGKSTFIKQMRIIHGQGYSEEDKRAHIRLVYQNVFMAIQSMIRAMDTLDIKFGNESEELQEKAAVVREVDFESVTSFEEPYVSYIKELWEDSGIQECYDRRREYQLTDSAKYYLSDLRRLAVPDYLPTEQDILRVRVPTTGIIEYPFDLEQIIFRMVDVGGQRSERRKWIHCFENVTSIMFLVALSEYDQVLVECDNENRMEESKALFRTIITYPWFTNSSVILFLNKKDLLEEKILYSHLADYFPEYDGPPRDPIAAREFILKMFVDLNPDADKIIYSHFTCATDTENIRFVFAAVKDTILQMHLRQYELL")
1640
>>> observed("Human Gαq/s5 (other) MTLESIMACCLSEEAKEARRINDEIERQLRRDKRDARRELKLLLLGTGESGKSTFIKQMRIIHGSGYSDEDKRGFTKLVYQNIFTAMQAMIRAMDTLKIPYKYEHNKAHAQLVREVDVEKVSAFENPYVDAIKSLWNDPGIQECYDRRREYQLSDSTKYYLNDLDRVADPSYLPTQQDVLRVRVPTTGIIEYPFDLQSVIFRMVDVGGQRSERRKWIHCFENVTSIMFLVALSEYDQVLVESDNENRMEESKALFRTIITYPWFQNSSVILFLNKKDLLEEKIMYSHLVDYFPEYDGPQRDAQAAREFILKMFVDLNPDSDKIIYSHFTCATDTENIRFVFAAVKDTILQLNLKQYELL")
98

// provenance: patent US7067277
